molecular target: recombinant human GAPDH (Mus musculus); construct: made in house; host or cells: E. coli K-12 strain DS112 (gapA-deficient); assay: Inhibition of dehydrogenase activity of recombinant somatic GAPDH (NADH accumulation at 340 nm); format: biochemical; settings: Table 7; 1 hour preincubation at 4° C.; 0.5 mM NAD, 0.5 mM glyceraldehyde-3-phosphate
pIC50: −log10 of the molar value.
property: pIC50

a. Clc1ccc(N=c2ssnc2Cl)c(Cl)c1
b. CN(C)c1ccc(C(CC(=O)c2c(O)c3ccccc3n(C)c2=O)NCc2ccncc2)cc1 (centres unmarked)
IN: For the pair a and b , which member has the lower pIC50 number? Returns: label corresponding to the selected item.
OUT: b
(b: 3.46, a: 4.00)

====

target: truncated form of human GAPDHS (Mus musculus, UniProt Q64467); construct: tGapdhs, amino acids 106-438; made in house; host or cells: E. coli K-12 strain DS112 (gapA-deficient); assay: Inhibition of dehydrogenase activity of recombinant truncated GAPDHS (NADH accumulation at 340 nm); format: biochemical
Sequence (Q64467 108-440): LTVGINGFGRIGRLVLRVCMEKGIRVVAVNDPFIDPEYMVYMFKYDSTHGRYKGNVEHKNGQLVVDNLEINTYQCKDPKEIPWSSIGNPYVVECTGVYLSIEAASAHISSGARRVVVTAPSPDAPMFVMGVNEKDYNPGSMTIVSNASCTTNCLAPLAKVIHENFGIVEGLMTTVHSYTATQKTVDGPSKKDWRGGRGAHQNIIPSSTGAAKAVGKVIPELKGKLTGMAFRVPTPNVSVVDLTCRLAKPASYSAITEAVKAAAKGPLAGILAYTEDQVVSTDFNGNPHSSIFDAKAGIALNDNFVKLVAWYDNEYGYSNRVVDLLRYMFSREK
pIC50: −log10 of the molar value.
property: pIC50

IN: Looking for the measured pIC50 of C=CC(=O)NCNC(=O)C=C [LT_00050115, N-(Acryloylamino-methyl)-acrylamide] , can you help?
OUT: < 3.00

====

target: recombinant human GAPDH (Mus musculus, UniProt P16858); construct: made in house; host or cells: E. coli K-12 strain DS112 (gapA-deficient); test: Inhibition of dehydrogenase activity of recombinant somatic GAPDH (NADH accumulation at 340 nm); assay type: biochemical; settings: Table 9; 1 hour preincubation at 4° C.; 0.5 mM NAD, 0.5 mM glyceraldehyde-3-phosphate
property: pIC50
Worth noting: pIC50 values are minus log10 of concentrations stated in mol/L.

IN: Looking for the measured pIC50 of COc1cc(C=NNC(=O)Cn2cnc3c(=O)n(C)c(=O)n(C)c32)cc([N+](=O)[O-])c1O , can you help?
OUT: 3.82

====

target: truncated form of human GAPDHS (Mus musculus, UniProt Q64467); construct: tGapdhs, amino acids 106-438; made in house; host or cells: E. coli K-12 strain DS112 (gapA-deficient); assay: Inhibition of dehydrogenase activity of recombinant truncated GAPDHS (NADH accumulation at 340 nm); format: biochemical; conditions: Table 11; 1 hour preincubation at 4° C.; 0.5 mM NAD, 0.5 mM glyceraldehyde-3-phosphate; read-out: IC50 GAPDHS
property: IC50 (µM)
Reply numerically in µM, unit not repeated.

IN: Looking for the measured IC50 of O=[N+]([O-])c1ccc2oc3ccccc3c2c1 , can you help?
OUT: 100

====

target: truncated form of human GAPDHS (Mus musculus); construct: tGapdhs, amino acids 106-438; made in house; host or cells: E. coli K-12 strain DS112 (gapA-deficient); assay: Inhibition of dehydrogenase activity of recombinant truncated GAPDHS (NADH accumulation at 340 nm); format: biochemical; conditions: Table 7; 1 hour preincubation at 4° C.; 0.5 mM NAD, 0.5 mM glyceraldehyde-3-phosphate; read-out: IC50 GAPDHS
property: IC50 (µM)

Worked cases, answers included:
molecule | IC50 / µM
Clc1ccc(N=c2ssnc2Cl)c(Cl)c1 [Compound 11K_064] | 500
CC1=NN(C(N)=N[N+](=O)[O-])C(=O)C1 [LT_00249157] | 100

P. O=C(COC(=O)CCc1c[nH]c2ccccc12)Nc1ccc(S(=O)(=O)N2CCOCC2)cc1 [Compound T0511_4909]
Q. Cc1ccc(S(=O)(=O)c2c(N)n(CC(O)c3ccc([N+](=O)[O-])cc3)c3nc4ccccc4nc23)cc1 (stereo not shown) [Compound T0501_7749]
IN: Higher IC50 between P and Q ? Returns: label corresponding to the selected item.
OUT: P
(P: 500 µM, Q: 100 µM)

====

target: Recombinant mouse Gapdh (Mus musculus, UniProt P16858); construct: GST (cleaved yes); made in house; test: Inhibition of recombinant Gapdh by adenine nucleotides (NAD reduction at 340 nm, 96-well format); format: biochemical; details: recombinant enzyme; result in words
Sequence (P16858 whole entry): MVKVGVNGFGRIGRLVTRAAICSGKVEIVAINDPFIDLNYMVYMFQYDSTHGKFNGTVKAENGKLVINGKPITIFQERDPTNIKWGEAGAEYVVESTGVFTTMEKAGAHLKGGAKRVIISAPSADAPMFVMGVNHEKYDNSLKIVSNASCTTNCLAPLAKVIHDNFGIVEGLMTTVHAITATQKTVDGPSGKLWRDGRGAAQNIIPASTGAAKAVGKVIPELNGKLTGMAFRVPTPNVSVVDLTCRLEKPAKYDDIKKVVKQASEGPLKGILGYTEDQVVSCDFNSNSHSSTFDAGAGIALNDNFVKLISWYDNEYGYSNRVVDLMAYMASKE
property: inhibition of Gapdhs (the other recombinant enzyme beside tGapdhs)

compound | reported
O=c1ccn([C@@H]2O[C@H](COP(=O)(O)OP(=O)(O)OP(=O)(O)O)[C@@H](O)[C@H]2O)c(=O)[nH]1 [UTP] | did not inhibit
Nc1ncnc2c1ncn2[C@@H]1O[C@H](CO)[C@@H](O)[C@H]1O [adenosine] | did not inhibit

====

target: recombinant human GAPDH (Mus musculus, UniProt P16858); construct: made in house; host or cells: E. coli K-12 strain DS112 (gapA-deficient); experiment: Inhibition of dehydrogenase activity of recombinant somatic GAPDH (NADH accumulation at 340 nm); type: biochemical; conditions: Table 7; 1 hour preincubation at 4° C.; 0.5 mM NAD, 0.5 mM glyceraldehyde-3-phosphate
property: IC50

Worked cases, answers included:
compound | property | reported
C=Cn1cncc1C(=O)C(F)(F)F | IC50 | > 1 mM
O=C(COC(=O)CCc1c[nH]c2ccccc12)Nc1ccc(S(=O)(=O)N2CCOCC2)cc1 | IC50 | > 1 mM

Okay, now this compound:
IN: Please state recorded IC50 (tested on recombinant human GAPDH (Mus musculus, UniProt P16858)) of Cc1ccc(S(=O)(=O)c2c(N)n(CC(O)c3ccc([N+](=O)[O-])cc3)c3nc4ccccc4nc23)cc1 (stereo not drawn)
OUT: > 1 mM

====

target: truncated form of human GAPDHS (Mus musculus, UniProt Q64467); construct: tGapdhs, amino acids 106-438; made in house; host or cells: E. coli K-12 strain DS112 (gapA-deficient); experiment: Inhibition of dehydrogenase activity of recombinant truncated GAPDHS (NADH accumulation at 340 nm); format: biochemical; details: Table 7; 1 hour preincubation at 4° C.; 0.5 mM NAD, 0.5 mM glyceraldehyde-3-phosphate; read-out: IC50 GAPDHS;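 further: recombinant enzyme (1 µg) in glycine–phosphate–EDTA buffer pH 8.9, inhibitors tested from 1 µM to 3 mM, activity relative to DMSO-only controls taken as 100%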
pIC50: −log10 of the molar value.
property: pIC50

compound | pIC50
OCc1nc2ccccc2[nH]1 | < 2.52

IN: Looking for the measured pIC50 of CN(C)c1ccc(C(CC(=O)c2c(O)c3ccccc3n(C)c2=O)NCc2ccncc2)cc1 (stereo not drawn) , can you help?
OUT: < 3.00

IN: Looking for the measured pIC50 of C=Cn1cncc1C(=O)C(F)(F)F , can you help?
OUT: < 3.00
